# Test system: HOP-62
# test: Antiproliferative activity against human HOP62 cells
# Type: functional
What GI50 was measured for each of the following?
One number for each entry, in nM.

Solved entries:
# chemical.structure, recorded.result
records = [
    ("COc1cc2cnc3c(c2cc1OC)Cc1c-3cc2c(c1C)OCO2", 7300),
    ("COc1cc2c3c(n(C)c(=O)c2cc1OC)-c1cc2c(cc1C3=O)OCO2", 1300),
]

Batch: GI50 for all items listed.
1. COc1cc2cnc3c(c2cc1OC)Cc1cc2c(cc1-3)OCO2
2. COc1cc2cnc3c(c2cc1OC)Cc1c-3cc2c(c1Cn1ccnc1)OCO2
3. COc1cc2cnc3c(c2cc1OC)Cc1c-3cc2c(c1CN1CCCC1)OCO2
4. COc1cc2cnc3c(c2cc1OC)Cc1c-3cc2c(c1CN1CCOCC1)OCO2
5. COc1cc2cnc3c(c2cc1OC)Cc1c-3cc2c(c1CN(C)CCN(C)C)OCO2
6. COc1cc2cnc3c(c2cc1OC)Cc1c-3cc2c(c1CN(C)C)OCO2

1. 72
2. 350
3. 1200
4. 2100
5. 1500
6. 6700

Could you tell me which GI50 is on file for CC[C@@]1(O)C(=O)OCc2c1cc1n(c2=O)Cc2cc3ccccc3nc2-1 ?
10
